molecular target: asialoglycoprotein receptor (ASGPR) on HepG2 cells (human) (UniProt P07306); assay: flow cytometry, % FAM-positive HepG2 cells after 24 h with 1.6 nM ligand
Sequence (P07306 whole entry, chain 1 of 2): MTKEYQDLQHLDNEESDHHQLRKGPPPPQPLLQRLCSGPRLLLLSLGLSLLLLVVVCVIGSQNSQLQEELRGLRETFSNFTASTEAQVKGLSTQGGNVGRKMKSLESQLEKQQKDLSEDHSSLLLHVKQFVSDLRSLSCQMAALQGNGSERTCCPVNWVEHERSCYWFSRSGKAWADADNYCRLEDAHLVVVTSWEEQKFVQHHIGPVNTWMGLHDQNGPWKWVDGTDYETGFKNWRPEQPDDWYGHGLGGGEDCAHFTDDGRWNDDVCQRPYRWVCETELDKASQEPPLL
Sequence (P07307 whole entry, chain 2 of 2, further chain): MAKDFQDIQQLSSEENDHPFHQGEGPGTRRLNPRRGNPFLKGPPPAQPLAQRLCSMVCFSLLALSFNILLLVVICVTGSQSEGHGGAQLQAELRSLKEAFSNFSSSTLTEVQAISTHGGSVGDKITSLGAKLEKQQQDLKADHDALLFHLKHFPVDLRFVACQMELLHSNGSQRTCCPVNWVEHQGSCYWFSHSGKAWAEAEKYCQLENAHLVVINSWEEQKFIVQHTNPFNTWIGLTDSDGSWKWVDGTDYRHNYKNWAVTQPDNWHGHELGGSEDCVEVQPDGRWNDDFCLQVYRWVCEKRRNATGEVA
Square brackets hold non-standard residues; d marks the D form. Side chains are listed from the residue outwards. * marks the point of attachment. Gal‑1 = GalNAc linker: 5-(GalNAc-oxy)pentanoic acid (3-acetamido-4,5-diacetoxy-6-(acetoxymethyl)tetrahydropyran-2-yl-oxy)pentanoic acid; 5FAM = O=C1OC2(c3ccc(O)cc3Oc3cc(O)ccc32)c2ccc(C(=O)*)cc21; Linker2 = 6-aminohexyl amide linker; GalNAc = N-acetylgalactosamine
measuredMetric: Efficiency (%) (proportion of FAM positive cells)

Query: Given cyclo([dK]([Gal‑1-GalNAc])[dE]([Linker2-5FAM])[dK]([Gal‑1-GalNAc])G[dK]([Gal‑1-GalNAc])G) [5-FAM-CPMB-0021] , state its recorded Efficiency (%) (proportion of FAM positive cells).
Reply: 6.8

1: cyclo(K([Gal‑1-GalNAc])[dE]([Linker2-5FAM])K([Gal‑1-GalNAc])GK([Gal‑1-GalNAc])G) [5-FAM-CPMB-0031]
2: KEKGKG (head-to-tail cyclic; D-Glu; each Lys side chain carries GalNAc via linker Gal-5; D-Glu side chain carries Linker2 with 5-FAM) [5-FAM-CPMB-0035]
3: KEKGKG (head-to-tail cyclic; D-Lys at the three Lys positions and D-Glu; each D-Lys side chain carries GalNAc via linker Gal-5; D-Glu side chain carries Linker2 with 5-FAM) [5-FAM-CPMB-0025]
Query: Please produce an ascending ranking of these binders based on Efficiency (%) (proportion of FAM positive cells). When ranking, write the labels in the order the request describes.
Reply: 3, 1, 2
(3: 1.6%, 1: 6%, 2: 11.1%)
